- Tested target: T1, human-CD40 monomer (human, UniProt P25942 21-193, limits assumed)
- T1 construct: also called hCD40-monomer; human-CD40-monomer protein
- T1 sequence (P25942 21-193 limits assumed): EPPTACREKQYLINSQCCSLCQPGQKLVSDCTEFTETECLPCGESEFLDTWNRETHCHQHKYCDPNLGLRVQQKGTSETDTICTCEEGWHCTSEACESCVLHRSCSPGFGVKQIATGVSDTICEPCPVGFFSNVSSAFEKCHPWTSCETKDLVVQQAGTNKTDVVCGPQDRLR
- Experiment summary: SPR 2 pt screen, Ab on protein A

Binder | Units symbol | kon
humanized Y1238 hz10 (hz-HC2 / hz-LC5), IgG1.3f (antibody, V domains shown, IgG1.3f heavy constant, common CL; expression supernatant; also called Sup 10) VH: QVQLVQSGAEVKKPGASVKVSCKASGYAFTNYLIEWVRQAPGQGLEWMGVINPGSGGTNYNEKFKGRVTMTADTSISTAYMELSRLRSDDTAVYYCARSQLGRRFDYWGQGTLVTVSS VL: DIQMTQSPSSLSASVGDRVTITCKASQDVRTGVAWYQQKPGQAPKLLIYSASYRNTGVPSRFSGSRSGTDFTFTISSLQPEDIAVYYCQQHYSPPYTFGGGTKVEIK | M⁻¹ s⁻¹ | 45000
humanized Y1238 hz25 (hz-HC5 / hz-LC5), IgG1.3f (antibody, V domains shown, IgG1.3f heavy constant, common CL; expression supernatant; also called Sup 25) VH: QVQLVQSGAEVKKPGASVKVSCKASGYAFTNYLIEWVRQRPGQGLEWMGVINPGSGGTNYNEKFKGRVTMTADKSISTAYMELSRLRSDDTAVYYCARSQLGRRFDYWGQGTLVTVSS VL: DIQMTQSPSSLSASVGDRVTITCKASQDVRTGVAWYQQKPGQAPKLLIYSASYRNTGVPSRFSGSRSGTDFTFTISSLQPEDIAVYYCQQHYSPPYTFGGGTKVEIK | M⁻¹ s⁻¹ | 43000
humanized Y1238 hz3 (hz-HC1 / hz-LC3), IgG1.3f (antibody, V domains shown, IgG1.3f heavy constant, common CL; expression supernatant; also called Sup 3) VH: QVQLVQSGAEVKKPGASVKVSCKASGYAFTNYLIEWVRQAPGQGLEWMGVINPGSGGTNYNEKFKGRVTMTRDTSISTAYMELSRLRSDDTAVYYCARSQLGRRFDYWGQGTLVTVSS VL: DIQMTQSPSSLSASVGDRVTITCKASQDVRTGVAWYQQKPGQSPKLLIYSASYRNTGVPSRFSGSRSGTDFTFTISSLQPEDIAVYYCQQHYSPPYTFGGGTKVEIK | M⁻¹ s⁻¹ | 48000
humanized Y1238 hz8 (hz-HC2 / hz-LC3), IgG1.3f (antibody, V domains shown, IgG1.3f heavy constant, common CL; expression supernatant; also called Sup 8) VH: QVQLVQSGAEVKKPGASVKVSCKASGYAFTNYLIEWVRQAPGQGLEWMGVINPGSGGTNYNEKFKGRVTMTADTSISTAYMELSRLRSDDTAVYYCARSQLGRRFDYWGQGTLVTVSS VL: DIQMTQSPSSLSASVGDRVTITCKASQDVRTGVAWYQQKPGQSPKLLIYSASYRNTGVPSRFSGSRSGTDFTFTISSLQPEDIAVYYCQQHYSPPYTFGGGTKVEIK | M⁻¹ s⁻¹ | 46000
humanized Y1238 hz22 (hz-HC5 / hz-LC2), IgG1.3f (antibody, V domains shown, IgG1.3f heavy constant, common CL; expression supernatant; also called Sup 22) VH: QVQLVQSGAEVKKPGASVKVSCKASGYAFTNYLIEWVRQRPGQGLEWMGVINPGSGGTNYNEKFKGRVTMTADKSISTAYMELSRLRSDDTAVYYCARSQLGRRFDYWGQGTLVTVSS VL: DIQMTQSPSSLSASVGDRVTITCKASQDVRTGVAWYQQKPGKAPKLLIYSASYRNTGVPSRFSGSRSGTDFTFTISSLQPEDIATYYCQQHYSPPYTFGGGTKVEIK | M⁻¹ s⁻¹ | 40000
humanized Y1238 hz53 (hz-HC11 / hz-LC3), IgG1.3f (antibody, V domains shown, IgG1.3f heavy constant, common CL; expression supernatant; also called Sup 53) VH: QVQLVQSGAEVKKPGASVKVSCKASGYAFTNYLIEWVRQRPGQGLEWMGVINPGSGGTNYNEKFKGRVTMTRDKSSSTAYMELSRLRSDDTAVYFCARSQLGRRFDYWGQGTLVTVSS VL: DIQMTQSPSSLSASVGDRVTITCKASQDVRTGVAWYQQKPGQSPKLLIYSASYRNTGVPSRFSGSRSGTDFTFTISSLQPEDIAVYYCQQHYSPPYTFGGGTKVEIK | M⁻¹ s⁻¹ | 37000
humanized Y1238 hz5 (hz-HC1 / hz-LC5), IgG1.3f (antibody, V domains shown, IgG1.3f heavy constant, common CL; expression supernatant; also called Sup 5) VH: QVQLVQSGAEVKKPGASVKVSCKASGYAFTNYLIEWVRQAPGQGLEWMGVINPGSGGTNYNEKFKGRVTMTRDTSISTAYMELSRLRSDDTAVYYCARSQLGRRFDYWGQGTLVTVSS VL: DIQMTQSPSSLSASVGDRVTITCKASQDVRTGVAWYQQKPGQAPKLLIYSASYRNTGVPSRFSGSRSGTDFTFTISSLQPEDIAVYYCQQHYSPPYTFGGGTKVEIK | M⁻¹ s⁻¹ | 47000
humanized Y1238 hz19 (hz-HC4 / hz-LC4), IgG1.3f (antibody, V domains shown, IgG1.3f heavy constant, common CL; expression supernatant; also called Sup 19) VH: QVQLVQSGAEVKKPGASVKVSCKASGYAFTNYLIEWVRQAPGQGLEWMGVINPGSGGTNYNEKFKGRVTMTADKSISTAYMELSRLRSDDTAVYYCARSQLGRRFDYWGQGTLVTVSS VL: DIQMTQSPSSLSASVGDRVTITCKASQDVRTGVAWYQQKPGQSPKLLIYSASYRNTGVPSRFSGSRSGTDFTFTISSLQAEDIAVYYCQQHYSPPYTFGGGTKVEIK | M⁻¹ s⁻¹ | 45000
humanized Y1238 hz21 (hz-HC5 / hz-LC1), IgG1.3f (antibody, V domains shown, IgG1.3f heavy constant, common CL; expression supernatant; also called Sup 21) VH: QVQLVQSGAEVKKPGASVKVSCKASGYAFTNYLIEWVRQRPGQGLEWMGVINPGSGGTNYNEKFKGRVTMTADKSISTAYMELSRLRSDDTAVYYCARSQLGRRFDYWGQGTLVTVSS VL: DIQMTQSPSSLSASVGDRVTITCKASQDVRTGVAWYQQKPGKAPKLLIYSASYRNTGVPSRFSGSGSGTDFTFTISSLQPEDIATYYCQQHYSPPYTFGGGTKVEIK | M⁻¹ s⁻¹ | 42000
humanized Y1238 hz6 (hz-HC2 / hz-LC1), IgG1.3f (antibody, V domains shown, IgG1.3f heavy constant, common CL; expression supernatant; also called Sup 6) VH: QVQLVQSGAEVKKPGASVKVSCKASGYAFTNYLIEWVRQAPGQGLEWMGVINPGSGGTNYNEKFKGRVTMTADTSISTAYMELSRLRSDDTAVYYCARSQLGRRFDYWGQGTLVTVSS VL: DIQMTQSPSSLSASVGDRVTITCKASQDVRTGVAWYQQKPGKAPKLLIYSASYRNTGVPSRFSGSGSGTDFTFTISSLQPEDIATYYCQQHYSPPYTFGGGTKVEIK | M⁻¹ s⁻¹ | 45000

The measured values listed here are drawn from patent US20220177596A1.
